test: MicroPET/CT imaging and biodistribution, HepG2 tumor model; format: in vivo, nude mice; conditions: both sexes, BALB/c nude, mouse, bone, iv, 5.55 MBq, total radioactivity; HepG2 (GPC3+) tumor model, 30 min, PET; read-out: Bone uptake
readout_kind: tissue uptake at 0.5 h (%ID/g)
Please give a number only; it is taken to be in %ID/g.

Exercise: Any idea what its tissue uptake at 0.5 h is? The molecule is CC(C)C[C@H](NC(=O)[C@H](CCCNC(=N)N)NC(=S)Nc1ccc(CC2CN(CC(=O)O)CCN(CC(=O)O)CCN2CC(=O)O)cc1)C(=O)N[C@@H](CC(N)=O)C(=O)N[C@H](C(=O)NCC(=O)NCC(=O)N[C@H](C(=O)N[C@@H](Cc1ccc(O)cc1)C(=O)N[C@@H](Cc1ccccc1)C(=O)N[C@@H](CC(C)C)C(=O)N[C@H](C(=O)N[C@H](C(=O)N[C@@H](CCCNC(=N)N)C(=O)N[C@@H](CCC(N)=O)C(=O)O)[C@@H](C)O)[C@@H](C)O)[C@@H](C)O)C(C)C (single isomer, unassigned) [Al[^18F]F-GP2076]
Key: 0.95

* * *

assay: In vitro biocompatibility (cell counting Kit-8 cell viability); assay type: cell-based; conditions: human, HepG2 cells, all concentrations 120 to 840 μg/ml
readout_kind: viability at 24 h

Exercise: Any idea what its viability at 24 h is? The compound is CC(C)C[C@H](NC(=O)[C@H](CCCNC(=N)N)NC(=S)Nc1ccc(CC2CN(CC(=O)O)CCN(CC(=O)O)CCN2CC(=O)O)cc1)C(=O)N[C@@H](CC(N)=O)C(=O)N[C@H](C(=O)NCC(=O)NCC(=O)N[C@H](C(=O)N[C@@H](Cc1ccc(O)cc1)C(=O)N[C@@H](Cc1ccccc1)C(=O)N[C@@H](CC(C)C)C(=O)N[C@H](C(=O)N[C@H](C(=O)N[C@@H](CCCNC(=N)N)C(=O)N[C@@H](CCC(N)=O)C(=O)O)[C@@H](C)O)[C@@H](C)O)[C@@H](C)O)C(C)C (stereo partly shown)
Key: > 90%

* * *

test: Ex vivo biodistribution in HepG2 tumor bearing nude mice; settings: both sexes, BALB/c nude, mouse, bone, iv, 1.85 MBq, total radioactivity; 1 h post-injection, gamma counting; read-out: Bone uptake, ex vivo biodistribution
readout_kind: tissue uptake at 1 h (%ID/g)
Please give a number only; it is taken to be in %ID/g.

Exercise: Any idea what its tissue uptake at 1 h is? The compound is CC(C)C[C@H](NC(=O)[C@H](CCCNC(=N)N)NC(=S)Nc1ccc(CC2CN(CC(=O)O)CCN(CC(=O)O)CCN2CC(=O)O)cc1)C(=O)N[C@@H](CC(N)=O)C(=O)N[C@H](C(=O)NCC(=O)NCC(=O)N[C@H](C(=O)N[C@@H](Cc1ccc(O)cc1)C(=O)N[C@@H](Cc1ccccc1)C(=O)N[C@@H](CC(C)C)C(=O)N[C@H](C(=O)N[C@H](C(=O)N[C@@H](CCCNC(=N)N)C(=O)N[C@@H](CCC(N)=O)C(=O)O)[C@@H](C)O)[C@@H](C)O)[C@@H](C)O)C(C)C (single isomer, unassigned) [Al[^18F]F-GP2076]
Key: 0.29

* * *

assay: MicroPET/CT imaging and biodistribution, HepG2 tumor model; assay type: in vivo, nude mice; conditions: both sexes, BALB/c nude, mouse, kidneys, iv, 5.55 MBq, total radioactivity; HepG2 (GPC3+) tumor model, 60 min, PET; read-out: Kidneys uptake
readout_kind: tissue uptake at 1 h
Report field: quantity (unit follows the number).

Exercise: Any idea what its tissue uptake at 1 h is? The compound is CC(C)C[C@H](NC(=O)[C@H](CCCNC(=N)N)NC(=S)Nc1ccc(CC2CN(CC(=O)O)CCN(CC(=O)O)CCN2CC(=O)O)cc1)C(=O)N[C@@H](CC(N)=O)C(=O)N[C@H](C(=O)NCC(=O)NCC(=O)N[C@H](C(=O)N[C@@H](Cc1ccc(O)cc1)C(=O)N[C@@H](Cc1ccccc1)C(=O)N[C@@H](CC(C)C)C(=O)N[C@H](C(=O)N[C@H](C(=O)N[C@@H](CCCNC(=N)N)C(=O)N[C@@H](CCC(N)=O)C(=O)O)[C@@H](C)O)[C@@H](C)O)[C@@H](C)O)C(C)C (single isomer, unassigned) [Al[^18F]F-GP2076]
Key: 7.03 %ID/g

* * *

Experiment: MicroPET/CT imaging and biodistribution, HepG2 tumor model
Format: in vivo, nude mice
Conditions: both sexes, BALB/c nude, mouse, HepG2 tumor / muscle, iv, 5.55 MBq, total radioactivity; HepG2 (GPC3+) tumor bearing mice, 120 min; read-out: Tumor-to-muscle (T/M) uptake ratio
Experimental: MicroPET/CT Imaging and Biodistribution. MicroPET/CT scans were carried out using a Siemens Inveon PET/CT scanner (Siemens, Germany). […] Inveon Research Workplace (IRW) 3.0 software (Siemens, Germany) was used to measure the regions of interest (ROIs) determined by superimposing the ellipsoid volume of interest (VOI) on the target tissues. The radioactivity concentrations were measured by the mean pixel intensity within each VOI and converted to dose/ml using a calibration constant. […]
readout_kind: tissue to tissue ratio at 2 h
Reply with just the number.

Exercise: Any idea what its tissue to tissue ratio at 2 h is? The molecule is CC(C)C[C@H](NC(=O)[C@H](CCCNC(=N)N)NC(=S)Nc1ccc(CC2CN(CC(=O)O)CCN(CC(=O)O)CCN2CC(=O)O)cc1)C(=O)N[C@@H](CC(N)=O)C(=O)N[C@H](C(=O)NCC(=O)NCC(=O)N[C@H](C(=O)N[C@@H](Cc1ccc(O)cc1)C(=O)N[C@@H](Cc1ccccc1)C(=O)N[C@@H](CC(C)C)C(=O)N[C@H](C(=O)N[C@H](C(=O)N[C@@H](CCCNC(=N)N)C(=O)N[C@@H](CCC(N)=O)C(=O)O)[C@@H](C)O)[C@@H](C)O)[C@@H](C)O)C(C)C (single isomer, unassigned) [Al[^18F]F-GP2076]
Key: 2.68

* * *

Experiment: MicroPET/CT imaging and biodistribution, HepG2 tumor model
Format: in vivo, nude mice
Details: both sexes, BALB/c nude, mouse, brain, iv, 5.55 MBq, total radioactivity; HepG2 (GPC3+) tumor model, 120 min, PET; read-out: Brain uptake
Protocol: MicroPET/CT Imaging and Biodistribution. MicroPET/CT scans were carried out using a Siemens Inveon PET/CT scanner (Siemens, Germany). […] Inveon Research Workplace (IRW) 3.0 software (Siemens, Germany) was used to measure the regions of interest (ROIs) determined by superimposing the ellipsoid volume of interest (VOI) on the target tissues. The radioactivity concentrations were measured by the mean pixel intensity within each VOI and converted to dose/ml using a calibration constant. […]
readout_kind: tissue uptake at 2 h (%ID/g)
Please give a number only; it is taken to be in %ID/g.

Exercise: Any idea what its tissue uptake at 2 h is? The compound is CC(C)C[C@H](NC(=O)[C@H](CCCNC(=N)N)NC(=S)Nc1ccc(CC2CN(CC(=O)O)CCN(CC(=O)O)CCN2CC(=O)O)cc1)C(=O)N[C@@H](CC(N)=O)C(=O)N[C@H](C(=O)NCC(=O)NCC(=O)N[C@H](C(=O)N[C@@H](Cc1ccc(O)cc1)C(=O)N[C@@H](Cc1ccccc1)C(=O)N[C@@H](CC(C)C)C(=O)N[C@H](C(=O)N[C@H](C(=O)N[C@@H](CCCNC(=N)N)C(=O)N[C@@H](CCC(N)=O)C(=O)O)[C@@H](C)O)[C@@H](C)O)[C@@H](C)O)C(C)C (single isomer, unassigned) [Al[^18F]F-GP2076]
Key: 0.13

* * *

test: MicroPET/CT imaging and biodistribution, HepG2 tumor model; assay type: in vivo, nude mice; details: both sexes, BALB/c nude, mouse, iv, 5.55 MBq, total radioactivity; HepG2 (GPC3+) tumor model, 30 min, PET, decay-corrected; read-out: Tumor uptake
readout_kind: tissue uptake at 0.5 h (%ID/g)
Please give a number only; it is taken to be in %ID/g.

Exercise: Any idea what its tissue uptake at 0.5 h is? The compound is CC(C)C[C@H](NC(=O)[C@H](CCCNC(=N)N)NC(=S)Nc1ccc(CC2CN(CC(=O)O)CCN(CC(=O)O)CCN2CC(=O)O)cc1)C(=O)N[C@@H](CC(N)=O)C(=O)N[C@H](C(=O)NCC(=O)NCC(=O)N[C@H](C(=O)N[C@@H](Cc1ccc(O)cc1)C(=O)N[C@@H](Cc1ccccc1)C(=O)N[C@@H](CC(C)C)C(=O)N[C@H](C(=O)N[C@H](C(=O)N[C@@H](CCCNC(=N)N)C(=O)N[C@@H](CCC(N)=O)C(=O)O)[C@@H](C)O)[C@@H](C)O)[C@@H](C)O)C(C)C (single isomer, unassigned) [Al[^18F]F-GP2076]
Key: 2.2
